Biological target: T1, human Nectin-4 expressed on cells (human, UniProt Q96NY8 32-510)
T1 construct: On SUM190, SUM185, MDA-MB-468 cells (endogenous) or transfected cells; 31-residue signal peptide left out; also called huN4; wild-type human Nectin-4
T1 sequence: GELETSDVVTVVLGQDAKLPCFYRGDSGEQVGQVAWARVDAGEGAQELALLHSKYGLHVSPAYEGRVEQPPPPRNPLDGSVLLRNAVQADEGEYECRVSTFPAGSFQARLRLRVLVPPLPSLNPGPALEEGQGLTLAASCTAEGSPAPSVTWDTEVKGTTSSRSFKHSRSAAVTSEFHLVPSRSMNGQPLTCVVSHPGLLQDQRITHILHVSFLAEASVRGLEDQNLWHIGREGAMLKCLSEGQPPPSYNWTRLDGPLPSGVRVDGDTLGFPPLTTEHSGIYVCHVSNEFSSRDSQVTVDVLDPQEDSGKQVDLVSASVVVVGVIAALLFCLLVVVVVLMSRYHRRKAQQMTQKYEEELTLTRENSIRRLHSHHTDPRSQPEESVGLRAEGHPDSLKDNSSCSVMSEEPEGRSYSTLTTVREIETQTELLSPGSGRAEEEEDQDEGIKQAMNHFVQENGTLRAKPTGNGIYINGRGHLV
Assay: flow cytometry on SUM190 cells, MedFI at saturation
Protocol: The humanized antibodies in Table 3 of Example 3 and in Table 6 of Example 5 were cloned, produced and purified, then tested for binding to Nectin-4 expressing cells by flow cytometry. Binding of humanized variants in human IgG1 format was determined on the SUM190 cell line expressing high levels of Nectin-4.
For each record, write down the corresponding Max MedFi.
Numbers only, in MedFI.

Worked examples, 2 binders total:
H6L2 (antibody, human IgG1, V domains shown, human IgG1 isotype) VH: QVQLVQSGAEVKKPGASVKVSCKASGYIFTSYWMHWVKQRPGQGLEWIGEIDPSDSYTNYNQKFKGRVTMTLDKSTSTTYMELSSLRSEDTAVYYCARGYGNYGDYWGQGTLVTVSS VL: DVVMTQSPLSNPVTPGEPASISCRSSKSLLHSNGITYLYWYLQKPGQSPQLLIYQMSNLASGVPDRFSSSGSGTDFTLKISRVEAEDVGVYYCAQNLELPWTFGGGTKVEIK; 24800
H2L0 (antibody, human IgG1, V domains shown, human IgG1 isotype) VH: QVQLVQSGAEVKKPGASVKVSCKASGYTFTSYWMHWVRQAPGQGLEWMGEIDPSDSYTNYNQKFKGRVTMTLDKSTSTTYMELSSLRSEDTAVYYCARGYGNYGDYWGQGTLVTVSS VL: DIVMTQSPLSLPVTPGEPASISCRSSKSLLHSNGITYLYWYLQKPGQSPQLLIYQMSNLASGVPDRFSGSGSGTDFTLKISRVEAEDVGVYYCAQNLELPWTFGGGTKVEIK; 16700

Please state, for each entry, its recorded Max MedFi.
1. H5L1 (antibody, human IgG1, V domains shown, human IgG1 isotype) VH: QVQLVQSGAEVKKPGASVKVSCKASGYIFTSYWMHWVKQRPGQGLEWMGEIDPSDSYTNYNQKFKGRVTMTLDKSTSTTYMELSSLRSEDTAVYYCARGYGNYGDYWGQGTLVTVSS VL: DVVMTQSPLSLPVTPGEPASISCRSSKSLLHSNGITYLYWYLQKPGQSPQLLIYQMSNLASGVPDRFSSSGSGTDFTLKISRVEAEDVGVYYCAQNLELPWTFGGGTKVEIK
2. H6L3 (antibody, human IgG1, V domains shown, human IgG1 isotype) VH: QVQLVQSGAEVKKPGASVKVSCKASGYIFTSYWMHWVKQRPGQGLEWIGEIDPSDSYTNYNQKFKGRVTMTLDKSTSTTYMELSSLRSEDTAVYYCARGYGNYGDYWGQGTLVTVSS VL: DVVMTQSALSNPVTPGEPASISCRSSKSLLHSNGITYLYWYLQKPGQSPQLLIYQMSNLASGVPDRFSSSGSGTDFTLKISRVEAEDVGVYYCAQNLELPWTFGGGTKVEIK
3. H3L0 (antibody, human IgG1, V domains shown, human IgG1 isotype) VH: QVQLVQSGAEVKKPGASVKVSCKASGYIFTSYWMHWVRQAPGQGLEWMGEIDPSDSYTNYNQKFKGRVTMTLDKSTSTTYMELSSLRSEDTAVYYCARGYGNYGDYWGQGTLVTVSS VL: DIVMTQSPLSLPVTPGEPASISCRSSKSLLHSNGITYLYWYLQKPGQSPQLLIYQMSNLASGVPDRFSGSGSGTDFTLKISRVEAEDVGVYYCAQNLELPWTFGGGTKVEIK

1: 18300; 2: 24800; 3: 17600

Provenance of the data: patent US20250297004A1
